target: 5-hydroxytryptamine receptor 2C (Homo sapiens); assay: Agonist activity at human 5-HT2C receptor expressed in HEK293 cells assessed as calcium flux by FLIPR assay relative to 5-HT; type: functional, cell-based
Emax under 80% gets T, anything at or over 80% gets F.

- NC[C@@H]1C[C@H]1c1cc(Cl)ccc1OCC(F)F: T
- C=CCOc1ccc(F)cc1[C@H]1C[C@@H]1CN.Cl: F
- C=C(F)COc1ccc(F)cc1[C@H]1C[C@@H]1CN: F
- CCCOc1ccc(Cl)cc1[C@H]1C[C@@H]1CN: T
- NC[C@@H]1C[C@H]1c1cc(F)ccc1OCCF: T
- NC[C@H]1C[C@@H]1c1cc(Cl)ccc1OCC1CC1: T

====

target: UniProtKB P20813; experiment: Inhibition of human CYP2B6 using bupropion as substrate at 10 uM; assay type: ADME; conditions: probe bupropion
Sequence (P20813 whole entry): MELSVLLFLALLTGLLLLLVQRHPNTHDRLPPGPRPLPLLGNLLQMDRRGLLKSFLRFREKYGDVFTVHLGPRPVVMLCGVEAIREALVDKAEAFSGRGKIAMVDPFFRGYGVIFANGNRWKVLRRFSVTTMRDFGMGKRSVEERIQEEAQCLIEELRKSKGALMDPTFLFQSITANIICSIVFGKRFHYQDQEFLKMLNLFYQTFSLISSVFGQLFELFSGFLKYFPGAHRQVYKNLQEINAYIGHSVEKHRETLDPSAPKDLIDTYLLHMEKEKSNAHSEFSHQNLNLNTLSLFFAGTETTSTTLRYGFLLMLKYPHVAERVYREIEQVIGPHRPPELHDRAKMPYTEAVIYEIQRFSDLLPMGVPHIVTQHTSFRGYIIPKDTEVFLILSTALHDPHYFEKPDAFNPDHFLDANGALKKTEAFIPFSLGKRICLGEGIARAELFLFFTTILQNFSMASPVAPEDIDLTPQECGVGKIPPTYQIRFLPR
This section presents molecules with their documented inhibition at 10 µM values.
observationType: inhibition at 10 µM (%)

- Cl.NC[C@H]1C[C@@H]1c1cc(Cl)ccc1OCCF: 58
- Cl.NC[C@H]1C[C@@H]1c1cc(F)ccc1OCCF: 6
- C=CCOc1ccc(F)cc1[C@H]1C[C@@H]1CN.Cl: 80
- C=C(F)COc1ccc(Cl)cc1[C@H]1C[C@@H]1CN.Cl: 77

====

molecular target: 5-hydroxytryptamine receptor 2B (Homo sapiens, UniProt P41595); assay: Agonist activity at human 5-HT2B receptor expressed in HEK293 cells assessed as calcium flux by FLIPR assay; format: functional, cell-based
Sequence (P41595 whole entry): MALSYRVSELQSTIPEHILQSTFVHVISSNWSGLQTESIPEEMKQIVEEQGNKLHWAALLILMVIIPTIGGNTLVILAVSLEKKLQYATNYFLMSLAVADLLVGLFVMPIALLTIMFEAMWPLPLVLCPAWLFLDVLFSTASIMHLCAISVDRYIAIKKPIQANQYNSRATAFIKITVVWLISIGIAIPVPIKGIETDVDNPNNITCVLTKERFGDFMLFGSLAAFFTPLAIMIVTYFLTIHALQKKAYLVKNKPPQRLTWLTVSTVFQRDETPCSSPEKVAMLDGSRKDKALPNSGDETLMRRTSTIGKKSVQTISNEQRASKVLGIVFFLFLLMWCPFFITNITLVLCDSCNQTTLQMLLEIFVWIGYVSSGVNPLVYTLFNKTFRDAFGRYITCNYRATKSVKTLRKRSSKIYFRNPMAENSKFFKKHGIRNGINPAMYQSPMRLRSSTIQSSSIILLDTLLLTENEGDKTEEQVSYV
The following ranges of EC50 define the classes used here: bucket 1 (below 2 µM), bucket 2 (2 µM to below 5 µM), bucket 3 (5 µM or more)

• Cl.NC[C@H]1C[C@@H]1c1cc(Cl)ccc1OCCF = bucket 1
• C=CCOc1ccc(Cl)cc1[C@@H]1C[C@H]1CN = bucket 2
• C#CCOc1ccc(Cl)cc1[C@@H]1C[C@H]1CN = bucket 2
• CC(C)Oc1ccc(Cl)cc1[C@@H]1C[C@H]1CN = bucket 3
• C#CCOc1ccc(Cl)cc1[C@H]1C[C@@H]1CN = bucket 2
• CC(C)Oc1ccc(Cl)cc1[C@H]1C[C@@H]1CN = bucket 1
• C=CCOc1ccc(Cl)cc1[C@H]1C[C@@H]1CN.O=C(O)C(F)(F)F = bucket 2
• C=C(C)COc1ccc(Cl)cc1[C@H]1C[C@@H]1CN = bucket 1
• CCCOc1ccc(F)cc1[C@@H]1C[C@H]1CN = bucket 1
• NC[C@@H]1C[C@H]1c1cc(Cl)ccc1OCCCF = bucket 3
• C=C(C)COc1ccc(Cl)cc1[C@@H]1C[C@H]1CN = bucket 3

====

target: UniProt P28223; experiment: Agonist activity at human 5-HT2A receptor expressed in HEK293 cells assessed as calcium flux by FLIPR assay
Sequence (P28223 whole entry): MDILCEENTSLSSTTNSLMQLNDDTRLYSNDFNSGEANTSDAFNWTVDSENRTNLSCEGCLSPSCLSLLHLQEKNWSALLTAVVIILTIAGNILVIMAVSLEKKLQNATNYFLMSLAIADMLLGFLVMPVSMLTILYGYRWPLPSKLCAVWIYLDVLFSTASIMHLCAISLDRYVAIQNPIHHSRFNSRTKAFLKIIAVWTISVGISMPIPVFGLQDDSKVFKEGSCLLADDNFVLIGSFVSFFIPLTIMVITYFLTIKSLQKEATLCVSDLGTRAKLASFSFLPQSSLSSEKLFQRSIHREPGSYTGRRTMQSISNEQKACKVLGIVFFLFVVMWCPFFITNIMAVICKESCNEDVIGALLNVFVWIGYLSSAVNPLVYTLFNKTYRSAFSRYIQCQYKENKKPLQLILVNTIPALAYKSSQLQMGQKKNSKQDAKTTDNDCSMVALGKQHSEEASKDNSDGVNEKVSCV
Here, each record is paired with measured EC50 data.
observationType: EC50 (nM)

- C#CCOc1ccc(Cl)cc1[C@H]1C[C@@H]1CN: 1010
- CC(C)Oc1ccc(Cl)cc1[C@H]1C[C@@H]1CN: 4000
- NC[C@@H]1C[C@H]1c1cc(Cl)ccc1OCC(F)F: 1300
- NC[C@H]1C[C@@H]1c1cc(Cl)ccc1OCC(F)F: 1810
- C=CCOc1ccc(F)cc1[C@H]1C[C@@H]1CN.Cl: 374
- Cl.NC[C@H]1C[C@@H]1c1cc(Cl)ccc1OCCF: 1480

====

Below is a list of entries, each paired with its recorded inhibition at 10 µM value.
biological target: CYP2C19 (Homo sapiens, UniProt P33261); assay: Inhibition of human CYP2C19 using omeprazole as substrate at 10 uM; assay type: ADME; settings: probe omeprazole
Sequence (P33261 whole entry): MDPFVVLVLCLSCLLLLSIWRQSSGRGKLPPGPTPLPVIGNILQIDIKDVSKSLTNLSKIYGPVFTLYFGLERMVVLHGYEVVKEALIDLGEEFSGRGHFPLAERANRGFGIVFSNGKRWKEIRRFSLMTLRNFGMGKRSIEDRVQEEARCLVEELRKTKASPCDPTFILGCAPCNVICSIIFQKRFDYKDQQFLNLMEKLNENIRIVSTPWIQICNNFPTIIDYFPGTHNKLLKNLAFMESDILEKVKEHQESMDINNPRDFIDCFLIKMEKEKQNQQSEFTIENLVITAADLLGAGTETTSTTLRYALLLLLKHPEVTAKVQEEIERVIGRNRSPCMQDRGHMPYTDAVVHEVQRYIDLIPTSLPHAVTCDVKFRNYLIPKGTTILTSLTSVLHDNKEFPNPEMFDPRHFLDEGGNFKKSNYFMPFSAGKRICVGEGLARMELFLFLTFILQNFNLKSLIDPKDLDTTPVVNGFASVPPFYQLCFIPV
observationType: inhibition at 10 µM (%)

* C=CCOc1ccc(F)cc1[C@H]1C[C@@H]1CN.Cl | 22
* Cl.NC[C@H]1C[C@@H]1c1cc(Cl)ccc1OCCF | 21
* C=C(F)COc1ccc(Cl)cc1[C@H]1C[C@@H]1CN.Cl | 33
* Cl.NC[C@H]1C[C@@H]1c1cc(F)ccc1OCCF | 26

====

molecular target: hERG (KCNH2) (Homo sapiens, UniProt Q12809); assay: Inhibition of human ERG channel expressed in CHO cells at […] by patch clamp method; type: cell-based; conditions: CHO cells expressing human ERG channel
Listed compounds paired with reported inhibition at […]
observationType: inhibition at […] (%)

* Cl.NC[C@H]1C[C@@H]1c1cc(F)ccc1OCCF | 11
* C=CCOc1ccc(F)cc1[C@H]1C[C@@H]1CN.Cl | 8.7

====

molecular target: 5-hydroxytryptamine receptor 2C (Homo sapiens, UniProt P28335); test: Agonist activity at human 5-HT2C receptor expressed in HEK293 cells assessed as calcium flux by FLIPR assay; assay type: functional, cell-based
Sequence (P28335 whole entry): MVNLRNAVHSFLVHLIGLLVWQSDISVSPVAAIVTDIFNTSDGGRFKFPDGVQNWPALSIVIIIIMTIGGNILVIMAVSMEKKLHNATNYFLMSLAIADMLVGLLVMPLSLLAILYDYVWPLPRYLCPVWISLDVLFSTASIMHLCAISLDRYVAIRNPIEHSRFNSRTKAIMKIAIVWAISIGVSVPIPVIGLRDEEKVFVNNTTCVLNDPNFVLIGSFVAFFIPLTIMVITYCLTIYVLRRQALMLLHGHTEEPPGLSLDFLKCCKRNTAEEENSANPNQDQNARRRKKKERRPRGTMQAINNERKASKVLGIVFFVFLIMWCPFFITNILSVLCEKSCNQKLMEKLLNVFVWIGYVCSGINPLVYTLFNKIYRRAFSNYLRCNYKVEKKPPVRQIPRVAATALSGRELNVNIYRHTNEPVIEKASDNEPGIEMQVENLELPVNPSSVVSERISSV
pEC50: −log10 of the molar value.
pEC50 listing for selected compounds.
observationType: pEC50

* COCCOc1ccc(Cl)cc1[C@H]1C[C@@H]1CN | 6.74
* NC[C@H]1C[C@@H]1c1cc(Cl)ccc1OCC1CC1 | 6.60
* C=C(C)COc1ccc(Cl)cc1[C@H]1C[C@@H]1CN | 6.67
* CSCCOc1ccc(Cl)cc1[C@H]1C[C@@H]1CN | 6.61
* C=C(F)COc1ccc(F)cc1[C@@H]1C[C@H]1CN | 6.01
* NC[C@H]1C[C@@H]1c1cc(Cl)ccc1OCC(F)F | 7.04
* CCCCOc1ccc(Cl)cc1[C@H]1C[C@@H]1CN | 6.54
* CC(C)Oc1ccc(Cl)cc1[C@H]1C[C@@H]1CN | 7.04

====

biological target: 5-hydroxytryptamine receptor 7 (Homo sapiens); experiment: Binding affinity to 5HT7 receptor (unknown origin)
Sequence (P34969 whole entry): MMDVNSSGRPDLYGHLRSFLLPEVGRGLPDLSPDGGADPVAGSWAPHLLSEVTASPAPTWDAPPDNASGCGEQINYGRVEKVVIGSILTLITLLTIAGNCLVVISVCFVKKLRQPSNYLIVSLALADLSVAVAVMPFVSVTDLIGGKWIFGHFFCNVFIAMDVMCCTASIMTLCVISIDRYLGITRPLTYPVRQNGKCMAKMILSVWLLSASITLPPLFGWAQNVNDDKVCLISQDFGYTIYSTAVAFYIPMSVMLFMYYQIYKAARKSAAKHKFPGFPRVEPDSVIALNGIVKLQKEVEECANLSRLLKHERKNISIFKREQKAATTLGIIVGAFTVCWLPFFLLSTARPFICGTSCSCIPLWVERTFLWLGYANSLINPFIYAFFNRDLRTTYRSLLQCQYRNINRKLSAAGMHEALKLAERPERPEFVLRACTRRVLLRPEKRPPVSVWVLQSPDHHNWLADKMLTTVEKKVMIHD
pKi: −log10 of the molar value.
observationType: pKi

• C=CCOc1ccc(F)cc1[C@H]1C[C@@H]1CN.Cl = > 6.00

====

biological target: 5-hydroxytryptamine receptor 2B (Homo sapiens, UniProt P41595); assay: Agonist activity at human 5-HT2B receptor expressed in HEK293 cells assessed as calcium flux by FLIPR assay relative to 5-HT; type: functional, cell-based
Catalogue of molecules with associated Emax
observationType: Emax (%)

• NC[C@H]1C[C@@H]1c1cc(Cl)ccc1OCC(F)F = 27
• CCOc1ccc(Cl)cc1[C@@H]1C[C@H]1CN = 26
• NC[C@@H]1C[C@H]1c1cc(Cl)ccc1OCCCF = 22
• C=C(C)COc1ccc(Cl)cc1[C@H]1C[C@@H]1CN = 32
• C=C(F)COc1ccc(Cl)cc1[C@H]1C[C@@H]1CN.Cl = 27
• NC[C@@H]1C[C@H]1c1cc(Cl)ccc1OCCF = 31
• NC[C@H]1C[C@@H]1c1cc(Cl)ccc1OCC1CC1 = 20
• C=CCOc1ccc(Cl)cc1[C@@H]1C[C@H]1CN = 28
• NC[C@@H]1C[C@H]1c1cc(Cl)ccc1OCC1CC1 = 32
• CCCOc1ccc(F)cc1[C@H]1C[C@@H]1CN = 33
• C=C(F)COc1ccc(Cl)cc1[C@@H]1C[C@H]1CN = 33
• CCCOc1ccc(Cl)cc1[C@@H]1C[C@H]1CN = 21
• CCOc1ccc(Cl)cc1[C@H]1C[C@@H]1CN = 45
• Cl.NC[C@H]1C[C@@H]1c1cc(Cl)ccc1OCCF = 31
• COCCOc1ccc(Cl)cc1[C@@H]1C[C@H]1CN = 32
• CCCOc1ccc(Cl)cc1[C@H]1C[C@@H]1CN = 25
• C#CCOc1ccc(Cl)cc1[C@H]1C[C@@H]1CN = 29
• C#CCOc1ccc(Cl)cc1[C@@H]1C[C@H]1CN = 30
• NC[C@@H]1C[C@H]1c1cc(Cl)ccc1OCC(F)F = 30
• C=C(C)COc1ccc(Cl)cc1[C@@H]1C[C@H]1CN = 39
• C=CCOc1ccc(Cl)cc1[C@H]1C[C@@H]1CN.O=C(O)C(F)(F)F = 32
• CCCOc1ccc(F)cc1[C@@H]1C[C@H]1CN = 11
• NC[C@H]1C[C@@H]1c1cc(Cl)ccc1OCCCF = 22

====

target: Voltage-gated inwardly rectifying potassium channel KCNH2 (Homo sapiens); experiment: Inhibition of human ERG channel expressed in CHO cells by patch clamp method
Sequence (Q12809 whole entry): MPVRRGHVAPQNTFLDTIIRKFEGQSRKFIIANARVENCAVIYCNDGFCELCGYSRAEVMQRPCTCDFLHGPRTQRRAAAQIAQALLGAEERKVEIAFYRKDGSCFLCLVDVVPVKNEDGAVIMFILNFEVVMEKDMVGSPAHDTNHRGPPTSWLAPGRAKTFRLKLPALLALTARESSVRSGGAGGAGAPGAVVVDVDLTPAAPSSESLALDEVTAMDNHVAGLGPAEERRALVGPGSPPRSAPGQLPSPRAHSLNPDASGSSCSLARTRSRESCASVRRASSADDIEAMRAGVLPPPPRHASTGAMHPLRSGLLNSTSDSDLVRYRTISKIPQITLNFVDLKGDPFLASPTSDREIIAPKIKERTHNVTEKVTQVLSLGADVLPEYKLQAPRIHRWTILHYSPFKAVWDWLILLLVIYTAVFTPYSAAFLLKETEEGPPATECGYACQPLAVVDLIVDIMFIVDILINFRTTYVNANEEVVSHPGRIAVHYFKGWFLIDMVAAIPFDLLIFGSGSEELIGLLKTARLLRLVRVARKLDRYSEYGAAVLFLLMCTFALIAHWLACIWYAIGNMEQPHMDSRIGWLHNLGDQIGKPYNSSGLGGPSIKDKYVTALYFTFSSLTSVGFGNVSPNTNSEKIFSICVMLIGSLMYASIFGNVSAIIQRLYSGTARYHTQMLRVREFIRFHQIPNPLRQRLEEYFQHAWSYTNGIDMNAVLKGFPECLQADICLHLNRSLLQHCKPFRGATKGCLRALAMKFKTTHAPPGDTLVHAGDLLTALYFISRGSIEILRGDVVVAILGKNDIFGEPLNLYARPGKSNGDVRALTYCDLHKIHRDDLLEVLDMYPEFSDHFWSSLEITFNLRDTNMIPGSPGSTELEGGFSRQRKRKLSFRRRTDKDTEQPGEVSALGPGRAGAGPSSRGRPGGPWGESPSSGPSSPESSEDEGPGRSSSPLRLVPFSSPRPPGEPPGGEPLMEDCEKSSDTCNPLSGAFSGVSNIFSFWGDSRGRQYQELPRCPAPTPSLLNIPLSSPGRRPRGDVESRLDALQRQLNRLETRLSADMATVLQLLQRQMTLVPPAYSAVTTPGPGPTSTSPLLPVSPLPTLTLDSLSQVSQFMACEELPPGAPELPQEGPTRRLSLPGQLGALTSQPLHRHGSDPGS
observationType: IC50 (nM)

- C=C(F)COc1ccc(Cl)cc1[C@H]1C[C@@H]1CN.Cl: 3980
- C=CCOc1ccc(Cl)cc1[C@H]1C[C@@H]1CN.O=C(O)C(F)(F)F: 270

====

molecular target: CYP2C9 (Homo sapiens); test: Inhibition of human CYP2C9 using diclofenac as substrate at 10 uM; format: ADME; settings: probe diclofenac
Sequence (P11712 whole entry): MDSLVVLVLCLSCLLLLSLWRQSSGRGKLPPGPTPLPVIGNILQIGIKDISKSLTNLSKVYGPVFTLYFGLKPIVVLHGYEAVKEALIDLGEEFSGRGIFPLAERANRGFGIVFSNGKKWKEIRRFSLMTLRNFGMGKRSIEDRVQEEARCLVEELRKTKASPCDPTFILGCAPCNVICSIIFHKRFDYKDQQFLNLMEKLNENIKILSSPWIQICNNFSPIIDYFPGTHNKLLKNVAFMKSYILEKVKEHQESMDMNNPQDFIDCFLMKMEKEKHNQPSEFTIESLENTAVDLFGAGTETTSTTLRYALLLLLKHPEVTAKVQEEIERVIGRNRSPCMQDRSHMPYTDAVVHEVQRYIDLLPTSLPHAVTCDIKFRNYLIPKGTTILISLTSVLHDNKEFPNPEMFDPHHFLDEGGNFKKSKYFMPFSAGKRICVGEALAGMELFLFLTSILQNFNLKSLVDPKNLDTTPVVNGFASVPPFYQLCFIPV
Listed next: entries and their corresponding inhibition at 10 µM.
observationType: inhibition at 10 µM (%)

• C=C(F)COc1ccc(Cl)cc1[C@H]1C[C@@H]1CN.Cl = 51
• Cl.NC[C@H]1C[C@@H]1c1cc(F)ccc1OCCF = 16
• Cl.NC[C@H]1C[C@@H]1c1cc(Cl)ccc1OCCF = 33
• C=CCOc1ccc(F)cc1[C@H]1C[C@@H]1CN.Cl = 35
